# koff annotations
- system: T1, human DLL3 (ACRO, DLL3-H52H4) (human, UniProt Q9NYJ7 27-492)
- T1 construct: Bought
- T1 sequence: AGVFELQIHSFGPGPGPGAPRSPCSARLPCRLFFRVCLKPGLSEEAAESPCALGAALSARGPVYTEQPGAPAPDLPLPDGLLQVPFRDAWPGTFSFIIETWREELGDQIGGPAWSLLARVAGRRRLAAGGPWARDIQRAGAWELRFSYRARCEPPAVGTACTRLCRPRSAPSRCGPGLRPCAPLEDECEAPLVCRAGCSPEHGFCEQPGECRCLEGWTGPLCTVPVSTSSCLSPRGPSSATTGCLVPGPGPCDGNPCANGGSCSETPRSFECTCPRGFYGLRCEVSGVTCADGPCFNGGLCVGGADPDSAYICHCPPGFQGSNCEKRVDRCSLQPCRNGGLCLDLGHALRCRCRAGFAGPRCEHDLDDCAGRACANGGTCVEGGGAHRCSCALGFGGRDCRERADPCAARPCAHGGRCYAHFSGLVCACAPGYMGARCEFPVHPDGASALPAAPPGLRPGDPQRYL
- protocolDetails: SPR Biacore 8K, Ab captured on Protein A
- Text: Test antibodies were affinity-captured with a Protein A biosensor chip (Cat. #29127556, Cytiva) for 18 seconds, and then the antigens human DLL3 (ACRO, DLL3-H52H4), cynomolgus monkey DLL3 (KACTUS, DLL-RM103), mouse DLL3 (KACTUS, DLL-MM103), human CD3D&3E (ACRO, CDD-H52W1), and monkey CD3D&3E (ACRO, CDD-C52W4) were allowed to flow through the surface of the chip for 180 seconds, followed by 600 seconds of dissociation. […]
Express the result in s⁻¹ but write the number alone.

Below, 3 binders whose answers are already recorded.
{"columns": ["binder", "koff (s⁻¹)"],
 "data": [
  ["hu30L1H4 (antibody, human IgG1, kappa, V domains shown) VH: EVRLVQSGAEVKKPGASVKVSCKASGYTFTDYYMNWVRQAPGQSLEWMGIINPYSGDTSYNQKFRGRVTLTVDKSASTAYMELSSLRSEDTAVYYCARYHYGPHLEGYFDVWGQGTTVTVSS VL: DIVMTQSPDSLAVSLGERATINCKASENVGYVSWYQQKPGQPPKLLIYGASNRYTGVPDRFSGSGSGTDFTLTISSLQAEDVAVYYCGQSYSYPLTFGQGTKLEIKR", 0.00116],
  ["hu30L3H1 (antibody, human IgG1, kappa, V domains shown) VH: EVQLVQSGAEVKKPGASVKVSCKASGYTFTDYYMNWVRQAPGQSLEWMGIINPYNGDTSYNQKFRGRVTITVDKSASTAYMELSSLRSEDTAVYYCARYHYGPHLEGYFDVWGQGTTVTVSS VL: DIVMTQSPKSLAVSLGERATINCKASENVGYVSWYQQKPGQSPKLLIYGASNRYTGVPDRFSGSGSATDFTLTISSLQAEDVAVYHCGQSYSYPLTFGQGTKLEIKR", 0.00059],
  ["hu6L4H12 (antibody, human IgG1, kappa, V domains shown) VH: EVQLVQSGSELKKPGASVKVSCKASGYTFTDYYMNWVRQAPGQGLEWMGIINPYSGVTIYNHKFKGRFALSVDKSSNTAYLQISSLKAEDTAVYYCARQDSLLDYAMDYWGQGTTVTVSS VL: DIQMTQSPSSLSASVGDRVTITCHASQGISGNMGWLQQKPGKAPKGLIYHGANLEDGVPSRFSGSGSGADYTLTISSLQPEDFADYYCVQYAQFPYTFGGGTKVEIKR", 0.000805]
]}

Turning now to a further binder:
The reported value for hu30L1H9 (antibody, human IgG1, kappa, V domains shown) VH: EVRLVQSGAEVKKPGASVKVSCKASGYTFTDYYMNWVRQAPGQSLEWIGIINPYTGDTSYNQKFRGRATLTVDKSASTAYMELSSLRSEDTAVYYCARYHYGPHLEGYFDVWGQGTTVTVSS VL: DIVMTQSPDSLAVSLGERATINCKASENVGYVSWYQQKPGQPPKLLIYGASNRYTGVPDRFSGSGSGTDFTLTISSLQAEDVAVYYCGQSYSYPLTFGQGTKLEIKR in terms of koff is 0.000981
